test system: Bacillus subtilis; assay: cleaved RNA product abundance (RNA/gDNA barcode ratio) relative to median wild-type variant (ratio to wild type); higher = more accumulation of the downstream cleavage product; conditions: experiment (reporter, strain, medium): exp 4a: truncated aprE reporter, strain BJT201 with 2% xylose (RNase J1 expressed); cleavage site: cggR-gapA (positions -7 to +36 mutated)
endpoint_label: cleaved RNA product abundance
Number, no unit, nothing else.

ACAGACGAAGGAGCCGCATAGAAGTTATTAAGCGATGAATAATCCCTCAATATAAATATCTCTCACTTATTTAAA = 0.122

Incoming: GET cleaved RNA product abundance | system: Bacillus subtilis | item: `ACAGACGAAGGAGCCGCAAAGAAGTCATTAAAGGATGAATAATCCCTCAATATAAATATCTCTCACTTATTTAAA`
Outgoing: 0.158

---

system: Bacillus subtilis; test: cleaved RNA product abundance (RNA/gDNA barcode ratio) relative to median wild-type variant (ratio to wild type); higher = more accumulation of the downstream cleavage product; conditions: experiment (reporter, strain, medium): exp 4a: truncated aprE reporter, strain BJT201 with 2% xylose (RNase J1 expressed); cleavage site: cggR-gapA (positions -7 to +36 mutated)
Below, each entry is listed with its recorded cleaved RNA product abundance.
Number, no unit, nothing else.

Incoming: Fill in cleaved RNA product abundance for record `ACAGACGAAGGAGCCGCCAAGAAGTTATTAAGGGATGAATAATCCCTCAATATAAATATCTCTCACTTATTTAAA`
Outgoing: 0.872

---

tested on: Bacillus subtilis; experiment: cleaved RNA product abundance (RNA/gDNA barcode ratio) relative to median wild-type variant (ratio to wild type); higher = more accumulation of the downstream cleavage product; details: experiment (reporter, strain, medium): exp 4a: truncated aprE reporter, strain BJT201 with 2% xylose (RNase J1 expressed); cleavage site: cggR-gapA (positions -7 to +36 mutated)
endpoint_label: cleaved RNA product abundance
Number, no unit, nothing else.

ACAGACGAAGGAGCCGCAAAGAAGTTATTAAGCGATTAATAATCCCTCAATATAAATATCTCTCACTTATTTAAA = 0.0983
ACAGACGAAGGAGCCGCAAAGAAGTTATTAAGGGATGAATAATCTATCAATATAAATATCTCTCACTTATTTAAA = 0.135
ACAGACGAAGGAGCCGCAAAGAAGTTATTAAGGGATGAATAATCCCTCAATATAATTATCTCTCACTTATTTAAA = 0.491
ACAGACGAAGGAGCCGCAAAGAAGTTATTAAGGGAAAAATAATCCCTCAATATAAATATCTCTCACTTATTTAAA = 0.771
ACAGACGAAGGAGCCGCAAAGAAGTTATTAAGGGATGAACAATCCGTCAATATAAATATCTCTCACTTATTTAAA = 0.109

Incoming: Fill in cleaved RNA product abundance for record `ACAGACGAAGGAGCCGCATAGAAGTTATTAAGGGTTGAATAATCCCTCAATATAAATATCTCTCACTTATTTAAA`
Outgoing: 0.41

Incoming: Fill in cleaved RNA product abundance for record `ACAGACGAAGGAGCCGCAAAGAAGTAATTAAGGGAAGAATAATCCCTCAATATAAATATCTCTCACTTATTTAAA`
Outgoing: 0.263

---

system: Bacillus subtilis; assay: cleaved RNA product abundance (RNA/gDNA barcode ratio) relative to median wild-type variant (ratio to wild type); higher = more accumulation of the downstream cleavage product; conditions: experiment (reporter, strain, medium): exp 4a: truncated aprE reporter, strain BJT201 with 2% xylose (RNase J1 expressed); cleavage site: cggR-gapA (positions -7 to +36 mutated)
Kindly return criterion met if reported cleaved RNA product abundance is no lower than 0.2; return criterion not met if it is lower.

ACAGACGAAGGAGCCGCAAAGAAGTTATTAAGGGACGAATAATTCCTCAATATAAATATCTCTCACTTATTTAAA = criterion not met
ACAGACGAAGGAGCCGCAAAGAAGTTATAAAGGGATGAATAATCCCTCAATATAAATATATCTCACTTATTTAAA = criterion met
ACAGACGAAGGAGCCGCAAAGAAGTTATTAAGAGACGAATAATCCCTCAATATAAATATCTCTCACTTATTTAAA = criterion not met
ACAGACGAAGGAGCCGCAAAGAAGTTTTTAAGGGATGAATAATCCCACAATATAAATATCTCTCACTTATTTAAA = criterion met
ACAGACGAAGGAGCCGCAAAGAAGTAATTAAGGGATGAATAATCCATCAATATAAATATCTCTCACTTATTTAAA = criterion not met

Incoming: Identify whether the reported cleaved RNA product abundance of the following sequence is 0.2 or greater: `ACAGACGAAGGAGCCGCAACGAAGTTATTAAGGGATGAATAATCCCTCACTATAAATATCTCTCACTTATTTAAA`
Outgoing: criterion met

Incoming: Identify whether the reported cleaved RNA product abundance of the following sequence is 0.2 or greater: `ACAGACGAAGGAGCCGCAAATAAGTCATTAAGGGATGAATAATCCCTCAATATAAATATCTCTCACTTATTTAAA`
Outgoing: criterion met
